Experiment: Solubility test of ivacaftor in solvents and acetone/water mixtures at 25° C.
Format: physicochemical
Conditions: methanol, organic solvent or mixture, Methanol, 25° C., read-out: Solubility
PROPERTY_MEASURED: solubility (µg/mL)
One number for each entry, in µg/mL.

Record `CC(C)(C)c1cc(C(C)(C)C)c(NC(=O)c2c[nH]c3ccccc3c2=O)cc1O` , field solubility: 1980

* * *

Assay: Solubility test of ivacaftor in solvents and acetone/water mixtures at 25° C.
Type: physicochemical
Details: acetone/water, organic solvent or mixture, 30% water in acetone, 25° C., read-out: Solubility in acetone/water
PROPERTY_MEASURED: solubility (mg/mL)
Answers are plain numbers, in mg/mL.

Record CC(C)(C)c1cc(C(C)(C)C)c(NC(=O)c2c[nH]c3ccccc3c2=O)cc1O [ivacaftor] , field solubility: 11

* * *

Assay: Solubility test of ivacaftor in solvents and acetone/water mixtures at 25° C.
Type: physicochemical
Conditions: acetone/water, organic solvent or mixture, 15% water in acetone, 25° C., read-out: Solubility in acetone/water
PROPERTY_MEASURED: solubility (mg/mL)
One number for each entry, in mg/mL.

Record CC(C)(C)c1cc(C(C)(C)C)c(NC(=O)c2c[nH]c3ccccc3c2=O)cc1O [ivacaftor] , field solubility: 43.3

* * *

Test: Solubility test of ivacaftor in solvents and acetone/water mixtures at 25° C.
Format: physicochemical
Conditions: N,N-dimethylformamide, organic solvent or mixture, N,N-dimethylformamide, 25° C., read-out: Solubility
PROPERTY_MEASURED: solubility (mg/mL)
One number for each entry, in mg/mL.

Record `CC(C)(C)c1cc(C(C)(C)C)c(NC(=O)c2c[nH]c3ccccc3c2=O)cc1O` , field solubility: 109

* * *

Assay: Solubility test of ivacaftor in solvents and acetone/water mixtures at 25° C.
Assay type: physicochemical
Conditions: acetone/water, organic solvent or mixture, 2% water in acetone, 25° C., read-out: Solubility in acetone/water
PROPERTY_MEASURED: solubility (mg/mL)
Numbers only, in mg/mL.

Record CC(C)(C)c1cc(C(C)(C)C)c(NC(=O)c2c[nH]c3ccccc3c2=O)cc1O [ivacaftor] , field solubility: 27.9

* * *

Test: Solubility test of ivacaftor in solvents and acetone/water mixtures at 25° C.
Format: physicochemical
Details: cyclohexane, organic solvent or mixture, Cyclohexane, 25° C., read-out: Solubility
PROPERTY_MEASURED: solubility (µg/mL)
Give bare numbers, in µg/mL.

Record CC(C)(C)c1cc(C(C)(C)C)c(NC(=O)c2c[nH]c3ccccc3c2=O)cc1O [ivacaftor] , field solubility: 340

* * *

Assay: Solubility test of ivacaftor in solvents and acetone/water mixtures at 25° C.
Type: physicochemical
Conditions: dimethyl sulfoxide, organic solvent or mixture, Dimethyl sulfoxide, 25° C., read-out: Solubility
PROPERTY_MEASURED: solubility (mg/mL)
One number for each entry, in mg/mL.

Record `CC(C)(C)c1cc(C(C)(C)C)c(NC(=O)c2c[nH]c3ccccc3c2=O)cc1O` , field solubility: 375

* * *

Assay: Solubility test of ivacaftor in solvents and acetone/water mixtures at 25° C.
Type: physicochemical
Details: tetrahydrofuran, organic solvent or mixture, Tetrahydrofuran, 25° C., read-out: Solubility
PROPERTY_MEASURED: solubility
Could you kindly put the unit after your number?

Record CC(C)(C)c1cc(C(C)(C)C)c(NC(=O)c2c[nH]c3ccccc3c2=O)cc1O [ivacaftor] , field solubility: 26.6 mg/mL
